Below: a set of entries, each annotated with reported viability, T/C.
# System: MDA-MB-231 complex spheroid viability
# assayOverview: Anticancer human tumor MDA-MB-231/ATCC cell line growth inhibition;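 note: drug exposure lasted 7 days starting on day 3 of spheroid growth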
# conditionContext: second compound 1 µM; first compound 0.0316 µM; hits give low values
measuredQuantity: viability, T/C (%)

>  <molecule>
COc1ccc([C@@H](O)c2cc(-c3ncnc4cc(N5CCOCC5)ccc34)c(F)cc2Cl)nn1 + NC1CCC(NC2CC2c2ccccc2)CC1

>  <unitTag>
%

>  <measuredValue>
96.6

$$$$
>  <molecule>
CC(C)CC(NC(=O)C(Cc1ccccc1)NC(=O)c1cnccn1)B(O)O (stereo unspecified) + NC1CCC(NC2CC2c2ccccc2)CC1

>  <unitTag>
%

>  <measuredValue>
0.38

$$$$
>  <molecule>
CC(C)CC(NC(=O)CNC(=O)c1cc(Cl)ccc1Cl)B1OC(=O)CC(CC(=O)O)(C(=O)O)O1 (stereo unspecified) + NC1CC1c1ccc(-c2cccc(O)c2)cc1

>  <unitTag>
%

>  <measuredValue>
0.95

$$$$
>  <molecule>
O=C(c1cc(Cc2n[nH]c(=O)c3ccccc23)ccc1F)N1CCN(C(=O)C2CC2)CC1 + NC1CCC(NC2CC2c2ccccc2)CC1

>  <unitTag>
%

>  <measuredValue>
93.1

$$$$
>  <molecule>
CC1(C)CCC(CN2CCN(c3ccc(C(=O)NS(=O)(=O)c4ccc(NCC5CCOCC5)c([N+](=O)[O-])c4)c(Oc4cnc5[nH]ccc5c4)c3)CC2)=C(c2ccc(Cl)cc2)C1 + NC1CCC(NC2CC2c2ccccc2)CC1

>  <unitTag>
%

>  <measuredValue>
98.9

$$$$
>  <molecule>
CC1(C)CCC(CN2CCN(c3ccc(C(=O)NS(=O)(=O)c4ccc(NCC5CCOCC5)c([N+](=O)[O-])c4)c(Oc4cnc5[nH]ccc5c4)c3)CC2)=C(c2ccc(Cl)cc2)C1 + NC1CC1c1ccc(-c2cccc(O)c2)cc1

>  <unitTag>
%

>  <measuredValue>
75.2

$$$$
>  <molecule>
Nc1ncn(C2CC(O)C(CO)O2)c(=O)n1 (stereo unspecified) + NC1CCC(NC2CC2c2ccccc2)CC1

>  <unitTag>
%

>  <measuredValue>
89.2

$$$$
>  <molecule>
Cn1ncnc1C1c2n[nH]c(=O)c3cc(F)cc(c23)NC1c1ccc(F)cc1 (stereo unspecified) + NC1CC1c1ccc(-c2cccc(O)c2)cc1

>  <unitTag>
%

>  <measuredValue>
53.5

$$$$
>  <molecule>
CC[C@@]1(O)C(=O)OCc2c1cc1n(c2=O)Cc2cc3c(CN(C)C)c(O)ccc3nc2-1 + NC1CCC(NC2CC2c2ccccc2)CC1

>  <unitTag>
%

>  <measuredValue>
22.4

$$$$
>  <molecule>
CC(C)c1c(-c2ccccc2)nc2c(C#N)c[nH]n2c1=O + NC1CCC(NC2CC2c2ccccc2)CC1

>  <unitTag>
%

>  <measuredValue>
101

$$$$
>  <molecule>
CC(C)CC(NC(=O)C(Cc1ccccc1)NC(=O)c1cnccn1)B(O)O (stereo unspecified) + NC1CC1c1ccc(-c2cccc(O)c2)cc1

>  <unitTag>
%

>  <measuredValue>
0.09

$$$$
>  <molecule>
CC1COCCN1c1cc(C2(S(C)(=N)=O)CC2)nc(-c2ccnc3[nH]ccc23)n1 (stereo unspecified) + NC1CCC(NC2CC2c2ccccc2)CC1

>  <unitTag>
%

>  <measuredValue>
109

$$$$
>  <molecule>
O=C(c1cc(Cc2n[nH]c(=O)c3ccccc23)ccc1F)N1CCN(C(=O)C2CC2)CC1 + NC1CC1c1ccc(-c2cccc(O)c2)cc1

>  <unitTag>
%

>  <measuredValue>
59.6

$$$$
>  <molecule>
COc1cc(Nc2ncc3c(n2)-c2ccc(Cl)cc2C(c2c(F)cccc2OC)=NC3)ccc1C(=O)O + NC1CCC(NC2CC2c2ccccc2)CC1

>  <unitTag>
%

>  <measuredValue>
55.6

$$$$
>  <molecule>
O=C(C=Cn1cnc(-c2cc(C(F)(F)F)cc(C(F)(F)F)c2)n1)NNc1cnccn1 + NC1CCC(NC2CC2c2ccccc2)CC1

>  <unitTag>
%

>  <measuredValue>
15.4

$$$$
>  <molecule>
CC1COCCN1c1cc(-c2ccnn2C)c2ccnc(-c3ccn[nH]3)c2n1 (stereo unspecified) + NC1CCC(NC2CC2c2ccccc2)CC1

>  <unitTag>
%

>  <measuredValue>
45.8

$$$$
>  <molecule>
CC1COCCN1c1cc(C2(S(C)(=N)=O)CC2)nc(-c2ccnc3[nH]ccc23)n1 (stereo unspecified) + NC1CC1c1ccc(-c2cccc(O)c2)cc1

>  <unitTag>
%

>  <measuredValue>
53.6

$$$$
>  <molecule>
CC(C)c1c(-c2ccccc2)nc2c(C#N)c[nH]n2c1=O + NC1CC1c1ccc(-c2cccc(O)c2)cc1

>  <unitTag>
%

>  <measuredValue>
69.4

$$$$
>  <molecule>
Nc1ncn(C2CC(O)C(CO)O2)c(=O)n1 (stereo unspecified) + NC1CC1c1ccc(-c2cccc(O)c2)cc1

>  <unitTag>
%

>  <measuredValue>
57.3

$$$$
>  <molecule>
Cn1ncnc1C1c2n[nH]c(=O)c3cc(F)cc(c23)NC1c1ccc(F)cc1 (stereo unspecified) + NC1CCC(NC2CC2c2ccccc2)CC1

>  <unitTag>
%

>  <measuredValue>
72.2

$$$$
>  <molecule>
CC[C@@]1(O)C(=O)OCc2c1cc1n(c2=O)Cc2cc3c(CN(C)C)c(O)ccc3nc2-1 + NC1CC1c1ccc(-c2cccc(O)c2)cc1

>  <unitTag>
%

>  <measuredValue>
24.6

$$$$
>  <molecule>
O=C(C=Cn1cnc(-c2cc(C(F)(F)F)cc(C(F)(F)F)c2)n1)NNc1cnccn1 + NC1CC1c1ccc(-c2cccc(O)c2)cc1

>  <unitTag>
%

>  <measuredValue>
14.6

$$$$
>  <molecule>
CC1COCCN1c1cc(-c2ccnn2C)c2ccnc(-c3ccn[nH]3)c2n1 (stereo unspecified) + NC1CC1c1ccc(-c2cccc(O)c2)cc1

>  <unitTag>
%

>  <measuredValue>
20.9

$$$$
>  <molecule>
CC(C)CC(NC(=O)CNC(=O)c1cc(Cl)ccc1Cl)B1OC(=O)CC(CC(=O)O)(C(=O)O)O1 (stereo unspecified) + NC1CCC(NC2CC2c2ccccc2)CC1

>  <unitTag>
%

>  <measuredValue>
4.74

$$$$
>  <molecule>
COc1ccc([C@@H](O)c2cc(-c3ncnc4cc(N5CCOCC5)ccc34)c(F)cc2Cl)nn1 + NC1CC1c1ccc(-c2cccc(O)c2)cc1

>  <unitTag>
%

>  <measuredValue>
59.3

$$$$
>  <molecule>
COc1cc(Nc2ncc3c(n2)-c2ccc(Cl)cc2C(c2c(F)cccc2OC)=NC3)ccc1C(=O)O + NC1CC1c1ccc(-c2cccc(O)c2)cc1

>  <unitTag>
%

>  <measuredValue>
38.3

$$$$

The reported measurements were obtained from PubChem BioAssay AID1918953.
